Entries annotated with measured GI50
system: OVCAR-4; experiment: NCI tumour cell line growth inhibition, 48 h
Calls of active or inactive are those of the source. Cut-off read from the data, not from the text of the source: active = GI50 up to about 1.1 µM and inactive = higher.

Reference set, count: 3
| compound | GI50 |
| --- | --- |
| CNC(=O)CCNC(=O)CCC(=O)OC | > 100 µM (inactive) |
| N#Cc1ccc2oc3ccc(C#N)cc3c(=O)c2c1 | 18 µM (inactive) |
| c1ccc2c(c1)CCN1CCc3ccccc3C1C2 (stereo not given) | > 100 µM (inactive) |

Given the compound c1ccc(CN2CCc3[nH]c4ccccc4c3C2)cc1 , what is its reported GI50? 34.8 µM (inactive)

Any idea what GI50 was measured for CC[C@]12C=CCN3CCC4(c5cc([C@@]6(C(=O)OC)CC7CN(CCc8c6[nH]c6ccccc86)C[C@@H]6CCCC[C@H]76)c(OC)cc5N(C)C4[C@](O)(C(=O)OC)C1OC(C)=O)[C@@H]32 (stereo not given in full) ? 5.2 µM (inactive)
